List of pKi tested on purified PARP protein (Homo sapiens).
Sequence (P09874 whole entry): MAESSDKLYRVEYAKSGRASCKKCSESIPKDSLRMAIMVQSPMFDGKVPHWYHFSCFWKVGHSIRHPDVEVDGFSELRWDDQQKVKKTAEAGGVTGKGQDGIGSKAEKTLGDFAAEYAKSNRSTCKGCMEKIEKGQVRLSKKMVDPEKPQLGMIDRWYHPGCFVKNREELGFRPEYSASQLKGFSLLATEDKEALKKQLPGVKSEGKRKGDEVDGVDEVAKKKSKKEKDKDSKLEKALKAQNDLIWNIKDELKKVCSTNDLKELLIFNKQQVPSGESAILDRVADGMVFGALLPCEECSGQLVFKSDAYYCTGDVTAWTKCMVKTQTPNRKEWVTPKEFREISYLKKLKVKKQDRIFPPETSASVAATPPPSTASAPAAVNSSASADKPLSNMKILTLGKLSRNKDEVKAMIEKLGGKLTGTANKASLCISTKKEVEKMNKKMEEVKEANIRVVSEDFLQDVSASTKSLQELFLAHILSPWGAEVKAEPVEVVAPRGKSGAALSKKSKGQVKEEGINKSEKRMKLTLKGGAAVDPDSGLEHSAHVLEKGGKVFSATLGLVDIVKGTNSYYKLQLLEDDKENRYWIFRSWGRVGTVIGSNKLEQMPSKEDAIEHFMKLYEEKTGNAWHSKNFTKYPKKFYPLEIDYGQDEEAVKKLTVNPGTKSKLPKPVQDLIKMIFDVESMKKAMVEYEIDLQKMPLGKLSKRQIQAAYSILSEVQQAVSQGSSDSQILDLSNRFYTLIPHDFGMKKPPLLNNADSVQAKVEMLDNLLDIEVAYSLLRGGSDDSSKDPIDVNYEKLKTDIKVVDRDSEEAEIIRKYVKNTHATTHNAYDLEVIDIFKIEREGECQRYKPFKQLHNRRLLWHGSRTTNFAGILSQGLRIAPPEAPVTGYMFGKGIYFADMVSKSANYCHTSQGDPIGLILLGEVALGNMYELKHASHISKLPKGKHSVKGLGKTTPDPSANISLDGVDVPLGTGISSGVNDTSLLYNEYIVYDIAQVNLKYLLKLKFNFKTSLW
pKi: −log10 of the molar value.

- Compound: "CNc1nc2c(C(N)=O)cccc2[nH]1"
  pKi: 7.07
- Compound: "NC(=O)c1cccc2[nH]c(CSc3nnc(-c4ccccc4)o3)nc12"
  pKi: 6.99
- Compound: "NC(=O)c1cccc2[nH]c(CN3CCC(N)C3)nc12 (stereo not shown)"
  pKi: 7.77
- Compound: "CC(=O)Nc1nnc(SCc2nc3c(C(N)=O)cccc3[nH]2)s1"
  pKi: 7.96
- Compound: "CC(=O)Nc1ccc(S(=O)(=O)Cc2nc3c(C(N)=O)cccc3[nH]2)cc1"
  pKi: 8.42
- Compound: "NC(=O)c1cccc2[nH]c(NCCc3cnc[nH]3)nc12"
  pKi: 7.92
- Compound: "NC(=O)c1cccc2[nH]c(CS(=O)(=O)c3ccc(N4C(=O)CNC4=O)cc3)nc12"
  pKi: 7.62
- Compound: "CCCCNCCSCc1nc2c(C(N)=O)cccc2[nH]1"
  pKi: 7.54
- Compound: "COc1ccc(SCc2nc3c(C(N)=O)cccc3[nH]2)cc1"
  pKi: 8.05
- Compound: "CCCCCCCSCc1nc2c(C(N)=O)cccc2[nH]1"
  pKi: 7.48
- Compound: "NC(=O)c1cccc2[nH]c(CS(=O)(=O)c3ccc(O)cc3)nc12"
  pKi: 7.62
- Compound: "CSc1nc2c(C(N)=O)cccc2[nH]1"
  pKi: 7.57
- Compound: "NC(=O)c1cccc2[nH]c(SCc3ccc([N+](=O)[O-])cc3)nc12"
  pKi: 8.33
- Compound: "NC(=O)c1cccc2c1nc1n2CCSC1"
  pKi: 7.03
- Compound: "CCCCCCCS(=O)(=O)Cc1nc2c(C(N)=O)cccc2[nH]1"
  pKi: 7.21
- Compound: "NC(=O)c1cccc2[nH]c(CS(=O)(=O)c3ccc(NC(=O)CO)cc3)nc12"
  pKi: 8.13
- Compound: "CNCCN(C)Cc1nc2c(C(N)=O)cccc2[nH]1"
  pKi: 7.85
- Compound: "NC(=O)c1cccc2[nH]c(CS(=O)(=O)c3ccc([N+](=O)[O-])cc3)nc12"
  pKi: 8.60
- Compound: "CN(CCc1ccccc1)c1nc2c(C(N)=O)cccc2[nH]1"
  pKi: 7.46
- Compound: "COc1ccc(S(=O)(=O)Cc2nc3c(C(N)=O)cccc3[nH]2)cc1"
  pKi: 7.99
- Compound: "NC(=O)c1cccc2[nH]c(CS(=O)(=O)c3ccc(NC(=O)OCc4ccccc4)cc3)nc12"
  pKi: 7.80
- Compound: "NC(=O)c1cccc2[nH]c(NCc3ccccc3)nc12"
  pKi: 7.18
- Compound: "NC(=O)Nc1ccc(S(=O)(=O)Cc2nc3c(C(N)=O)cccc3[nH]2)cc1"
  pKi: 7.53
- Compound: "NC(=O)c1cccc2[nH]c(CNCCCN3CCCC3)nc12"
  pKi: 7.82
- Compound: "CN(C)c1nc2c(C(N)=O)cccc2[nH]1"
  pKi: 7.36

Cited source for all entries: patent US20040034078A1
